// reported IC50 for each item listed
- Target Entity: catalytic domain 2 (CD2) of HDAC6 (Homo sapiens (Human))
- Method: Cellular target engagement assay - NanoBRET
- Experimental Context: NanoLuc-HDAC6(CD2) in HEK293T cells, 2 hours, read-out: IC50 (HDAC6(CD2) interaction)

Smiles Repr	IC50
Cn1cc2c(SCC(=O)c3ccc(CNC(=O)CO)s3)nc(C(F)F)nc2n1	100 to 500 nM
CCn1cc2c(SCC(=O)c3ccc(CNC(=O)CO)s3)nc(C(F)(F)F)nc2n1	≤ 100 nM
Cc1nc(SCC(=O)c2ccc(CNC(=O)C3CC3)s2)c2ccccc2n1	100 to 500 nM
COc1ccc2c(SCC(=O)c3ccc(CNC(=O)CO)s3)nc(C)nc2c1	100 to 500 nM
Cn1ncc2c(SCC(=O)c3ccc(CNC(=O)Cc4cccnc4)s3)ncnc21	≤ 100 nM
COc1ccc2nc(C)nc(SCC(=O)c3ccc(CNC(=O)C4CC4)s3)c2c1	100 to 500 nM
O=C(CO)NCc1ccc(C(=O)CSc2nc3c(C(F)(F)F)cccc3o2)s1	1000 to 10000 nM
O=C(CSc1nc(C(F)(F)F)nc2ccccc12)c1ccc(CCNC(=O)C2CC2)s1	≤ 100 nM
Cn1ncc2c(SCC(=O)c3ccc(CNS(C)(=O)=O)s3)ncnc21	100 to 500 nM

----------
- Target Entity: catalytic domain 2 (CD2) of HDAC6 (Homo sapiens (Human), UniProt Q9UBN7)
- Sequence (Q9UBN7 482-800): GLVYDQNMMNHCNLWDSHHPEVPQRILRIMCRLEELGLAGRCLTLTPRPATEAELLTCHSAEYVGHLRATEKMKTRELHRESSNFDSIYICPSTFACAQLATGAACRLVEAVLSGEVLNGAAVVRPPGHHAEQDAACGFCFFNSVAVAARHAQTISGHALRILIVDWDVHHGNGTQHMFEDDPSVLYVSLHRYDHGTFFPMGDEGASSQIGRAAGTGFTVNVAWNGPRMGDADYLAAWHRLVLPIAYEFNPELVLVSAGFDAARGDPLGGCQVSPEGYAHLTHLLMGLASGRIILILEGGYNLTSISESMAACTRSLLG
- Method: Cellular target engagement assay - NanoBRET
- Experimental Context: NanoLuc-HDAC6(CD2) in HEK293T cells, 2 hours, read-out: IC50 (HDAC6(CD2) interaction)
pIC50: −log10 of the molar value.
Recorded Endpoint: pIC50

Compound	Observed Value
COCCn1ncc2c(SCC(=O)c3ccc(CNC(=O)CO)s3)nc(C(F)(F)F)nc21 [Compound 125]	≥ 7.00
COc1ccc2nc(C)nc(SCC(=O)c3ccc(CNC(=O)C(F)(F)C(F)(F)F)s3)c2c1 [Example 40]	5.00 to 6.00
O=C(CO)NCc1ccc(C(=O)CSc2nc3nc(C(F)(F)F)ccc3o2)s1 [Compound 72]	≥ 7.00
Cc1ccc2c(SCC(=O)c3ccc(CNC(=O)C(C)(C)C)s3)nc(C)nc2c1 [Example 11]	6.30 to 7.00
O=C(CO)NCc1ccc(C(=O)CSc2nc3cc(C(F)(F)F)ncc3o2)s1 [Compound 71]	≥ 7.00
Cc1nc(SCC(=O)c2ccc(CNC(=O)CO)s2)c2cc(OC3CC3)ccc2n1 [Compound 77]	≥ 7.00
O=C(CO)NCc1ccc(C(=O)CSc2nc3cc(Cl)ccc3o2)s1 [Example 174]	5.00 to 6.00
CC(C)c1nc(SCC(=O)c2ccc(CNC(=O)C(C)(C)C)s2)c2ccccc2n1 [Example 1]	6.30 to 7.00
COc1ccc2nc(C)nc(SCC(=O)c3ccc(CNC(=O)C4CCCN4)s3)c2c1 (centres unmarked) [Compound 184]	6.30 to 7.00
COc1ccc2nc(C)nc(SCC(=O)c3ccc(CNC(=O)C(F)F)s3)c2c1 [Compound 172]	6.30 to 7.00
CCn1ncc2c(SCC(=O)c3ccc(CNC(=O)CO)s3)nc(C(F)(F)F)nc21 [Compound 136]	≥ 7.00
CC(C)(C)C(=O)NCc1ccc(C(=O)CSc2nc(C3CC3)nc3ccccc23)s1 [Example 2]	6.30 to 7.00
COc1ccc2nc(C(F)(F)F)nc(SCC(=O)c3ccc(CNC(=O)C(C)(C)O)s3)c2c1 [Compound 134]	6.30 to 7.00
CCc1nc(SCC(=O)c2ccc(CNC(=O)C(C)(C)C)s2)c2ccccc2n1 [Example 13]	6.30 to 7.00
Cn1ncc2c(SCC(=O)c3ccc(CNC(=O)c4ccccc4)s3)ncnc21 [Example 30]	≥ 7.00
O=C(NCCc1ccc(C(=O)CSc2nc(C(F)(F)F)nc3ccccc23)s1)c1ccccc1 [Example 37]	5.00 to 6.00
CC(C)(C)C(=O)NCc1ccc(C(=O)CSc2nncc3ccccc23)s1 [Example 193]	6.30 to 7.00

----------
- Target Entity: catalytic domain 2 (CD2) of HDAC6 (Homo sapiens (Human))
- Method: Cellular target engagement assay - NanoBRET
- Experimental Context: NanoLuc-HDAC6(CD2) in HEK293T cells, 2 hours, read-out: IC50 (HDAC6(CD2) interaction)
pIC50: −log10 of the molar value.

Compound	pIC50
Cn1ncc2c(SCC(=O)c3ccc(CNC(=O)Cc4ccccn4)s3)ncnc21	6.00 to 6.30
O=C(CO)NCc1ccc(C(=O)CSc2nccc3ccncc23)s1	6.30 to 7.00
Cn1ncc2c(SCC(=O)c3ccc(CNS(=O)(=O)c4ccccc4)s3)ncnc21	5.00 to 6.00
CC(=O)NCCc1ccc(C(=O)CSc2nc(C(F)(F)F)nc3ccccc23)s1	6.30 to 7.00
COc1ccc2nc(C(F)(F)F)nc(SCC(=O)c3ccc(CNC(=O)CO)s3)c2c1	≥ 7.00
COc1cc2c(SCC(=O)c3ccc(CNC(=O)CO)s3)nc(C(F)(F)F)nc2cn1	≥ 7.00
Cc1nc(SCC(=O)c2ccc(CNC(=O)C3CC3(F)F)s2)c2cc(OC(F)(F)F)ccc2n1 (centres unmarked)	6.30 to 7.00
COc1ccc2nc(C)nc(SCC(=O)c3ccc(CNC(=O)CN)s3)c2c1	6.30 to 7.00

----------
- Target Entity: catalytic domain 2 (CD2) of HDAC6 (Homo sapiens (Human), UniProt Q9UBN7)
- Method: Cellular target engagement assay - NanoBRET
- Format: cell-based
- Experimental Context: NanoLuc-HDAC6(CD2) in HEK293T cells, 2 hours, read-out: IC50 (HDAC6(CD2) interaction)
pIC50: −log10 of the molar value.

Molecule	Target Entity	pIC50
COc1ccc2c(SCC(=O)c3ccc(CNC(=O)C(C)(C)C)s3)nc(C)nc2c1	catalytic domain 2 (CD2) of HDAC6 (Homo sapiens (Human), UniProt Q9UBN7)	6.30 to 7.00
O=C(CO)NCc1ccc(C(=O)CSc2nc(C(F)(F)F)nc3ncccc23)s1	catalytic domain 2 (CD2) of HDAC6 (Homo sapiens (Human), UniProt Q9UBN7)	≥ 7.00
Cn1cc2c(SCC(=O)c3ccc(CNC(=O)C4CC4(F)F)s3)nc(C(F)(F)F)nc2n1 (stereo not shown)	catalytic domain 2 (CD2) of HDAC6 (Homo sapiens (Human), UniProt Q9UBN7)	6.30 to 7.00
Cn1cc2c(SCC(=O)c3ccc(CNC(=O)C4CC4)s3)nc(C(F)(F)F)nc2n1	catalytic domain 2 (CD2) of HDAC6 (Homo sapiens (Human), UniProt Q9UBN7)	≥ 7.00

----------
- Target Entity: human full-length recombinant HDAC1 (Homo sapiens (Human), UniProt Q13547)
- Sequence (Q13547 whole entry): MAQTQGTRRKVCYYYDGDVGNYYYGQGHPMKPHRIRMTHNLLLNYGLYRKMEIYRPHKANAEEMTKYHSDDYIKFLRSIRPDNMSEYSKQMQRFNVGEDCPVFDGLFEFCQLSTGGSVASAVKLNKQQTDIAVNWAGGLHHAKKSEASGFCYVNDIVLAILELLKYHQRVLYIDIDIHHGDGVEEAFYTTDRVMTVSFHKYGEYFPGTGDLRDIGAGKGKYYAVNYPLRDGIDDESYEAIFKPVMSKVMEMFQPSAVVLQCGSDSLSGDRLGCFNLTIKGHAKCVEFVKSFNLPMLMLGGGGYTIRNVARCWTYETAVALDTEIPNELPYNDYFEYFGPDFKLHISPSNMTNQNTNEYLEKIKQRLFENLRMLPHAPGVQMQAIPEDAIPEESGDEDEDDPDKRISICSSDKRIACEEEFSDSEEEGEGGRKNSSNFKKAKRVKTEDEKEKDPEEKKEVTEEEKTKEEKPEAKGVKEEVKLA
- Method: HDAC1 enzymatic activity assay (alternative protocol, Ac-Gly-Ala-Lys(Ac)-AMC)
- Assay type: biochemical
- Experimental Context: 4 nM enzyme, read-out: HDAC1 biochem
Recorded Endpoint: IC50

Compound	Observed Value
CC1CCN(Cc2ccc(C(=O)CSc3ncnc4c3cnn4C)s2)C1=O (stereo not shown) [Example 24]	> 10 µM
CC(C)(C)C(=O)NCc1ccc(C(=O)CSc2nc(C(F)F)nc3ccccc23)s1 [Example 19]	> 10 µM
CC(C)(C)C(=O)NCc1ccc(C(=O)CSc2nc(C(F)(F)F)nc3ccccc23)s1 [Example 38]	> 10 µM
Cc1nc(SCC(=O)c2ccc(CNC(=O)C(C)(C)C)s2)c2cnn(C)c2n1 [Example 5]	> 10 µM

----------
- Target Entity: catalytic domain 2 (CD2) of HDAC6 (Homo sapiens (Human), UniProt Q9UBN7)
- Method: Cellular target engagement assay - NanoBRET
- Experimental Context: NanoLuc-HDAC6(CD2) in HEK293T cells, 2 hours, read-out: IC50 (HDAC6(CD2) interaction)
Recorded Endpoint: IC50

Compound	Observed Value
Cc1nc(SCC(=O)c2ccc(CNC(=O)CO)s2)c2c(F)c(Cl)ccc2n1	≤ 100 nM
Cn1ncc2c(SCC(=O)c3ccc(CNC(=O)C(C)(C)C)s3)ncnc21	100 to 500 nM
Cc1nc(SCC(=O)c2ccc(CNC(=O)C(C)(C)C)s2)c2cc(F)ccc2n1	100 to 500 nM
Cn1cc2c(SCC(=O)c3ccc(CNC(=O)C(O)C(F)(F)F)s3)nc(C(F)(F)F)nc2n1 (stereo not shown)	≤ 100 nM

----------
// reported IC50 for each item listed
- Target Entity: catalytic domain 2 (CD2) of HDAC6 (Homo sapiens (Human))
- Method: Cellular target engagement assay - NanoBRET
- Experimental Context: NanoLuc-HDAC6(CD2) in HEK293T cells, 2 hours, read-out: IC50 (HDAC6(CD2) interaction)
Recorded Endpoint: IC50

Compound	Observed Value
Cn1ncc2c(SCC(=O)c3ccc(CNS(=O)(=O)C4CC4)s3)ncnc21	1 to 10 µM
Cn1ncc2c(SCC(=O)c3ccc(CNC(=O)C(C)(C)C)s3)nc(C(F)F)nc21	0.5 to 1 µM
Cn1ncc2c(SCC(=O)c3ccc(CNC(=O)C4CC4)s3)ncnc21	1 to 10 µM
Cc1nc(SCC(=O)c2ccc(CNS(=O)(=O)CC3CC3)s2)c2ccccc2n1	0.1 to 0.5 µM
Cn1ncc2c(SCC(=O)c3ccc(CNC(=O)C(C)(C)C)s3)nc(C3CC3)nc21	0.1 to 0.5 µM
COc1ccc2nc(C)nc(SCC(=O)c3ccc(CNC(=O)CO)s3)c2c1F	≤ 0.1 µM
O=C(CO)NCc1ccc(C(=O)CSc2nc3cc(C(F)(F)F)ccc3o2)s1	1 to 10 µM
Cc1nc(SCC(=O)c2ccc(CNC(=O)CO)s2)c2cc(N3CCC(F)(F)C3)ccc2n1	≤ 0.1 µM
Cc1ccc2oc(SCC(=O)c3ccc(CNC(=O)CO)s3)nc2c1	1 to 10 µM
COCc1nc(SCC(=O)c2ccc(CNC(=O)C(C)(C)C)s2)c2ccccc2n1	0.5 to 1 µM
Cc1nc(SCC(=O)c2ccc(CNC(=O)CO)s2)c2cc(NCC3CC3)ccc2n1	≤ 0.1 µM
COc1ccc2nc(C)nc(SCC(=O)c3ccc(CCN4CCC(O)C4=O)s3)c2c1 (centres unmarked)	0.5 to 1 µM
Cc1nc(SCC(=O)c2ccc(CNC(=O)CO)s2)c2cc(N3CCCOCC3)ccc2n1	≤ 0.1 µM
O=C(CO)NCc1ccc(C(=O)CSc2nccn3nccc23)s1	1 to 10 µM
CN(Cc1ccc(C(=O)CSc2nc(C(F)(F)F)nc3nn(C)cc23)s1)C(=O)CO	0.1 to 0.5 µM
COc1ccc2nc(C)nc(SCC(=O)c3ccc(CNC(=O)C4CCCO4)s3)c2c1 (centres unmarked)	0.1 to 0.5 µM
O=C(CSc1nc(C(F)(F)F)nc2ncccc12)c1ccc(CNC(=O)C2CC2(F)F)s1 (centres unmarked)	≤ 0.1 µM
